Value source: PubChem BioAssay

Study Target: Fibroblast growth factor 10 (Homo sapiens)
Experimental Details: compounds binding fibroblast growth factor 10 – biochemical, small-molecule microarray, 635 nm fluorescence, primary screen (AID 1102)
Conditions: FGF10 binding, fluorescence 635 nm, higher = more signal
# binarize composite z-score: threshold 0.3 inclusive, high side TRUE, low side FALSE

| Smiles String | Classification |
| --- | --- |
| COC(=O)[C@@]1(Cc2ccccc2)[C@H]2c3cc(C(=O)N(C)C)n(CCO)c3C[C@H]2CN1C(=O)c1ccccc1 | TRUE |
| CN(C)CCCNC(=O)[C@@]1(C)c2ccccc2C(=O)N(Cc2ccc(OC(F)(F)F)cc2)[C@H]1c1ccc(CO)cc1 | FALSE |
| COC(=O)[C@@]1(Cc2ccc(F)cc2)[C@H]2c3cc(C(=O)N(C)C)n(CCc4ccc(O)c(O)c4)c3C[C@H]2CN1C(=O)c1ccccc1 | TRUE |
| COc1ccccc1CN1C(=O)c2ccccc2[C@](Cc2ccccc2I)(C(=O)NCC(C)C)[C@@H]1c1ccc(CO)cc1 | FALSE |
| CCCNC(=O)[C@@]1(c2ccc([N+](=O)[O-])cc2)CC(=O)N(C(C)C)[C@@H]1c1ccc(CO)cc1 | FALSE |
| CC(C)N1C(=O)C[C@@](C(=O)NCCN2CCOCC2)(c2ccc([N+](=O)[O-])cc2)[C@H]1c1ccc(CO)cc1 | FALSE |
| COc1ccc(CCNC(=O)[C@@H]2c3ccccc3C(=O)N(Cc3ccccc3OC)[C@H]2c2ccc(CO)cc2)cc1 | TRUE |
| C=CCNC(=O)[C@@H]1[C@H]2C(=O)O[C@H](c3ccccc3)[C@H](c3ccccc3)N2[C@H](c2ccc(OCCO)cc2)[C@@]12C(=O)Nc1ccc(C#CC3(O)CCCCCC3)cc12 | TRUE |
| COC(=O)[C@@]1(Cc2ccc(OC)cc2)[C@H]2c3cc(C(=O)N4CCCC4)n(CCn4cc([N+](=O)[O-])nc4C)c3C[C@H]2CN1C(=O)c1ccccc1 | TRUE |
| CN(C)C(=O)[C@@]1(Cc2ccccc2CN=[N+]=[N-])COC(c2ccc(OCCCO)cc2)=N1 | FALSE |
| N#Cc1ccc(-c2cccc(=O)o2)cc1 | FALSE |
| COc1ccc([Si](C)(C)[C@H]2[C@H](CC(=O)N3Cc4ccccc4C[C@H]3CO)O[C@@]3(C(=O)N(C)c4c(Br)cc(C)cc43)[C@@H]2C)cc1 | TRUE |
| CCOC(=O)C[C@H]1[C@H](OC(=O)Cc2ccc3c(c2)OCO3)[C@@H](NC(=O)c2ccc3ccccc3n2)c2cc(OCCCO)ccc2N1C(=O)Cc1ccc(OC)cc1 | TRUE |
| Cc1ccc(S[C@]2(C(=O)NCCCN(C)C)CC(=O)N(C3Cc4ccccc4C3)[C@@H]2c2ccc(CO)cc2I)cc1 | FALSE |
| CC(C)(C)OC(=O)CC[C@@]1(C(=O)NCCN2CCOCC2)N=C(c2ccc(OCCCO)cc2)O[C@@H]1c1ccccc1CN=[N+]=[N-] | FALSE |
| COC(=O)[C@@]1(Cc2ccccc2)[C@H]2c3cc(C(=O)N(C)C)n(Cc4ccc(S(C)(=O)=O)cc4)c3C[C@H]2CN1C(=O)c1ccccc1 | TRUE |
| COc1ccc([Si](C)(C)[C@@H]2[C@@H](CC(=O)N3CCC[C@H]3CO)O[C@]3(C(=O)N(Cc4cccc(N5CCCCC5=O)c4)c4ccccc43)[C@H]2C)cc1 | TRUE |
| COC(=O)[C@@]1(Cc2ccc(OC)cc2)[C@H]2c3cc(C(=O)N4CCCC4)n(Cc4ccc(Cl)c(C(F)(F)F)c4)c3C[C@H]2CN1C(=O)c1ccccc1 | TRUE |
| C=CC[C@@]12N=C(c3ccc(OCCCO)cc3)O[C@@H]1c1ccccc1N(CCC)C2=O | TRUE |
| CCOC(=O)C[C@H]1[C@H](OC(=O)c2ccccc2-c2ccccc2)[C@@H](NC(=O)c2ccc3ccccc3c2)c2cc(OCCCO)ccc2N1C(=O)Cc1ccc(OC)cc1 | FALSE |
| CCOC(=O)C1=CC[C@@H](c2ccccc2)N(S(=O)(=O)c2ccc(C)cc2)[C@H]1c1ccccc1I | TRUE |
| O=C1c2ccccc2[C@@]2(Cc3ccccc3N(Cc3ccccc3)C2=O)[C@H](c2ccc(CO)cc2)N1Cc1ccccc1Cl | FALSE |
| COc1ccc([Si](C)(C)[C@@H]2[C@@H](CC(=O)N(CCO)Cc3ccccc3)O[C@]3(C(=O)N(Cc4ccc(I)cc4)c4ccccc43)[C@H]2C)cc1 | TRUE |
| CN(C)CCCC[C@@H]1NC(=O)[C@@H]2C[C@H](C(=O)NCCCCCCNC(=O)CS)[C@H](c3ccc(O)cc3)N2C1=O | TRUE |
